From: patent US7115619B2

Assay: Growth inhibition, sulforhodamine B (SRB) assay, GM847
Format: cell-based
Conditions: human, GM847 cells (immortalised by ALT pathway), 96 hr incubation, read-out: Cytotoxicity IC50 GM847
Method: Growth inhibition was measured in the following cells lines using the sulforhodamine B (SRB) assay: • A2780: human ovarian carcinoma cell line. • CH1: human ovarian carcinoma cell line. • SKOV-3: human ovarian carcinoma cell line. • A431: human vulval carcinoma cells (short telomeres). • GM847: carcinoma cell line immortalised by ALT pathway. Briefly, between 3000 and 6000 cells were seeded into the wells of 96-well microtiter plates and allowed to attach overnight. […]
Threshold-based label: IC50 at 96 h under 800 nM gives Condition met, IC50 at 96 h not under 800 nM gives Condition not met.

Is IC50 at 96 h strictly under 800 nM for the entry COC(=O)Oc1cc2c3c([n+](C)c4ccccc4c3c1)-c1ccccc1N2C [RHPS13] ?
Condition met

Is IC50 at 96 h strictly under 800 nM for the entry CN1c2ccccc2-c2c3c1cccc3c1cc(/C=C/C(=O)N3CCOCC3)ccc1[n+]2C [RHPS16] ?
Condition not met

Is IC50 at 96 h strictly under 800 nM for the entry COC(=O)/C=C/c1ccc2c(c1)c1cccc3c1c([n+]2C)-c1ccccc1N3C [RHPS15] ?
Condition not met

Is IC50 at 96 h strictly under 800 nM for the entry CC(=O)Oc1cc2c3c([n+](C)c4ccccc4c3c1)-c1ccccc1N2C [RHPS11] ?
Condition not met

Is IC50 at 96 h strictly under 800 nM for the entry COc1cc2c3c([n+](C)c4ccccc4c3c1)-c1ccc(Cl)cc1N2C [RHPS12] ?
Condition met
